- MEASURED ON: α2A receptor (Homo sapiens, UniProt P08913)
- Construct: host or cells: LM(tk-) cells, line L-α2A
- Sequence (P08913 whole entry): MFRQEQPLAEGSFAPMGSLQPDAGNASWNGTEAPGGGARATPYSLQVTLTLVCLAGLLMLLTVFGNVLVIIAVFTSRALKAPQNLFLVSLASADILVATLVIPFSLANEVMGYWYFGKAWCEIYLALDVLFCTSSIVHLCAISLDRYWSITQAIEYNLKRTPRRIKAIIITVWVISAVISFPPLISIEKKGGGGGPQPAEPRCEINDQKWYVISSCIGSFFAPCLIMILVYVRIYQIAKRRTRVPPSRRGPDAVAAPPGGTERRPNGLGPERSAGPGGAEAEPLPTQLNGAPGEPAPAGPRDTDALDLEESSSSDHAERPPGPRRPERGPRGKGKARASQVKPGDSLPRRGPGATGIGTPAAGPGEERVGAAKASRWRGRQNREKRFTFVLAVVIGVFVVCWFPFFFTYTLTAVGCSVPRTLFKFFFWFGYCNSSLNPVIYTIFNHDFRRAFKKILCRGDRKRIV
- ASSAY: Competition binding, [3H]rauwolscine, human α2A receptor
- RUN CONDITIONS: [3H]rauwolscine, LM(tk-) cell line L-α2A; SEM and n in lines below
Please note: True applies when pKi alpha-2 2a is 6 or greater, and False applies otherwise.

COMPOUND: CCC1=C(C(=O)NCCCCN2CCC(c3ccccc3)CC2)C(c2ccc([N+](=O)[O-])cc2)C(C(N)=O)=C(C)N1.Cl.O (stereo not shown) [Example 77]
LABEL CLASS: True

COMPOUND: CC(=O)C1=C(C)NC(C)=C(C(=O)NCCCN2CCC(c3ccccc3)(c3ccccc3)CC2)C1c1ccc([N+](=O)[O-])cc1 (stereo not shown) [Example 47]
LABEL CLASS: True

COMPOUND: CC1=C(C(N)=O)C(c2ccc([N+](=O)[O-])cc2)C(C(=O)NC2CCN(Cc3ccccc3)CC2)=C(c2ccoc2)N1.Cl.O (stereo not shown) [Example 66]
LABEL CLASS: False

COMPOUND: CCC1=C(C(=O)NCCCN2CCc3cc(OC)c(OC)cc3C2)C(c2ccc([N+](=O)[O-])cc2)C(C(N)=O)=C(C)N1.Cl.O (stereo not shown) [Example 76]
LABEL CLASS: True

COMPOUND: COC(=O)C1=C(C)NC(c2ccccc2)=C(C(=O)NCCCN2CCC(c3ccccc3)CC2)C1c1ccc([N+](=O)[O-])cc1.Cl (stereo not shown) [Example 79]
LABEL CLASS: True

COMPOUND: COc1cc2c(c(OC)c1)CCN(CCCNC(=O)C1=C(c3ccoc3)NC(C)=C(C(N)=O)C1c1ccc([N+](=O)[O-])cc1)C2.Cl.O (stereo not shown) [Example 67]
LABEL CLASS: True

###

Where a name gives a salt, the structure may show the parent alone.

COMPOUND: CCNC(=O)C1=C(CC)NC(CC)=C(C(=O)NCCCN2CCC(c3ccccc3)(c3ccc(OC)cc3)CC2)C1c1ccc([N+](=O)[O-])cc1 (centres unmarked)
melting point: 172 °C (dec.)

COMPOUND: CC1=C(C(N)=O)C(c2ccc([N+](=O)[O-])cc2)C(C(=O)NCCCN2CCC(c3ccccc3)(c3ccccc3)CC2)=C(COCCN=[N+]=[N-])N1 (centres unmarked)
melting point: 90 to 95 °C (dec.)

COMPOUND: CCC1=C(C(=O)NCCCN2CCC(c3ccccc3)(c3ccccc3)CC2)C(c2ccc([N+](=O)[O-])cc2)C(C(N)=O)=C(COCCN=[N+]=[N-])N1 (centres unmarked)
melting point: 87 to 91 °C

COMPOUND: CC1=C(C#N)C(c2ccc([N+](=O)[O-])cc2)C(C(=O)NCCCN2CCC(c3ccccc3)(c3ccccc3)CC2)=C(C)N1 (centres unmarked) (as salt: hydrochloride)
melting point: 252 °C (dec.)

COMPOUND: COC(=O)C1=C(C)NC(C)=C(C(=O)N(C)CCCN2CCC(c3ccccc3)(c3ccccc3)CC2)C1c1ccc([N+](=O)[O-])cc1 (centres unmarked) (as salt: hydrochloride) (hydrate or solvate) [Example 46, hydrochloride hemihydrate]
melting point: 179 to 180 °C

COMPOUND: CC(=O)C1=C(C)NC(COCCN)=C(C(=O)NCCCN2CCC(c3ccccc3)(c3ccccc3)CC2)C1c1ccc2c(c1)OCO2 (centres unmarked)
melting point: 80 °C (dec.)

COMPOUND: CCC1=C(C(=O)NCCCN2CCC(c3ccccc3)(c3ccccc3)CC2)C(c2ccc([N+](=O)[O-])cc2)C(C(=O)NC)=C(COCCN=[N+]=[N-])N1 (centres unmarked) (as salt: hydrochloride)
melting point: 200 °C (dec.)

COMPOUND: CC1=C(C(=O)O)C(c2ccc([N+](=O)[O-])cc2)C(C(=O)NCCCN2CCC(c3ccccc3)(c3ccccc3)CC2)=C(COCCN=[N+]=[N-])N1 (centres unmarked)
melting point: 135 °C (dec.)

COMPOUND: CCOC(=O)C1(c2ccccc2)CCN(CCCNC(=O)C2=C(COCCN)NC(CC)=C(C(=O)O)C2c2ccc([N+](=O)[O-])cc2)CC1 (centres unmarked)
melting point: 103 to 105 °C

COMPOUND: CC(=O)C1=C(C)NC(CCCCN)=C(C(=O)NCCCN2CCC(c3ccccc3)(c3ccccc3)CC2)C1c1ccc([N+](=O)[O-])cc1 (centres unmarked)
melting point: 76 to 79 °C

COMPOUND: COC(=O)C1(c2ccccc2)CCN(CCCNC(=O)C2=C(C)NC(C)=C(C(=O)OCCO)C2c2ccc([N+](=O)[O-])cc2)CC1 (centres unmarked)
melting point: 90 to 91 °C

These entries and their values trace back to patent US6608086B2.
